tested on: PC3 prostate carcinoma cells; assay: Cell viability, PC3 cells; format: cell-based; conditions: PC3 cells expressing dn-jun; read-out: IC-50 (cisplatin)
Property: IC50
Note: state the figure and append the unit.

Query :: Please tell me the measured IC50 for N.N.[Cl][Pt][Cl] [cisplatin] ; system: PC3 prostate carcinoma cells.
Result :: 18 µM
